Listed below: TD50 values for each entry.
# Test system: rodent lifetime carcinogenesis bioassay, tumor incidence TD50
# assay: carcinogenic potency in animals, long-term in vivo studies, CPDB compilation (AID 1745844)
# experimental-parameters: mouse; strain B6C3F1; females; in feed; site: liver; lesion: hepatocellular adenoma + hepatocellular carcinoma + neoplastic nodule; dosed 103 weeks; study length 104 weeks
# value in mg/kg/day; strip the unit string

COc1ccc(N)c(OC)c1 : 2790
O=P(OCC(Br)CBr)(OCC(Br)CBr)OCC(Br)CBr (stereo not drawn) : 95
CCn1cc(C(=O)O)c(=O)c2ccc(C)nc21 : 3160
Cc1ccc(N=Nc2c(O)ccc3ccccc23)c([N+](=O)[O-])c1 : 204000
Nc1ccc(N)cc1 : 1370

Recorded TD50 for CNC[C@H](O)c1cccc(O)c1 , please?
7850

Recorded TD50 for c1ccc(Nc2ccc3ccccc3c2)cc1 , please?
5630

Recorded TD50 for CCNC(=S)NCC , please?
687

---

# Tested on: rodent lifetime carcinogenesis bioassay, tumor incidence TD50
# assay: carcinogenic potency in animals, long-term in vivo studies, CPDB compilation (AID 1745844)
# experimental-parameters: mouse; strain B6C3F1; females; inhaled; site: all sites; lesion: histiocytic sarcoma + malignant lymphoma, mixed type + malignant lymphoma, lymphocytic type + malignant lymphoma, undifferenti; dosed 83 weeks; study length 104 weeks
observable: TD50 (mg/kg/day)
# value in mg/kg/day; strip the unit string

Recorded TD50 for C=CC=C , please?
27.4

---

# System: rodent lifetime carcinogenesis bioassay, tumor incidence TD50
# assay: carcinogenic potency in animals, long-term in vivo studies, CPDB compilation (AID 1745844)
# experimental-parameters: mouse; strain B6C3F1; females; oral dosing; site: lung; lesion: adenoma; dosed 82 weeks; study length 82 weeks
observable: TD50 (mg/kg/day)
# value in mg/kg/day; strip the unit string

Recorded TD50 for CCOC(=O)C(O)(c1ccc(Cl)cc1)c1ccc(Cl)cc1 , please?
621

---

# System: rodent lifetime carcinogenesis bioassay, tumor incidence TD50
# assay: carcinogenic potency in animals, long-term in vivo studies, CPDB compilation (AID 1745844)
# experimental-parameters: rat; strain Charles River CD (Sprague-Dawley); females; in feed; site: mammary gland; lesion: several types; types named in the paper; dosed 105 weeks; study length 105 weeks
observable: TD50
Answer with the value and then the unit.

Recorded TD50 for CCNc1nc(Cl)nc(NC(C)(C)C#N)n1 , please?
22.9 mg/kg/day

---

Listed below: TD50 values for each entry.
# System: rodent lifetime carcinogenesis bioassay, tumor incidence TD50
# assay: carcinogenic potency in animals, long-term in vivo studies, CPDB compilation (AID 1745844)
# experimental-parameters: mouse; strain B6C3F1; males; in feed; site: any site (literature study); lesion: several types; types named in the paper; dosed 103 weeks; study length 105 weeks
Calls of active or inactive are those of the source. The rule behind the calls is not given here.

Here is how some compounds turned out for TD50.
Oc1ccc2ccccc2c1N=Nc1ccccc1 : 154 mg/kg/day (inactive)
Nc1nc(N)nc(N)n1 : 3200 mg/kg/day (inactive)
CO[C@H]1[C@@H](O)[C@@H](CO)OC(OC2C3CO[C@H]2[C@H](O)C(C)O3)[C@@H]1O (stereo partly drawn) : 54900 mg/kg/day

Recorded TD50 for CC , please?
46000 mg/kg/day

Recorded TD50 for Nc1cc(S(=O)(=O)[O-])cc2cc(S(=O)(=O)[O-])c(N=Nc3ccc(-c4ccc(N=Nc5c(S(=O)(=O)[O-])cc6cc(S(=O)(=O)[O-])cc(N)c6c5O)c(O)c4)cc3O)c(O)c12.[Cu].[Cu].[Na+].[Na+].[Na+].[Na+] , please?
1910 mg/kg/day

Recorded TD50 for OB(O)O , please?
500 mg/kg/day

Recorded TD50 for Nc1cccc2c(N)cccc12 , please?
583 mg/kg/day

Recorded TD50 for CCCOC(=O)c1cc(O)c(O)c(O)c1 , please?
3640 mg/kg/day

Values from PubChem BioAssay AID1745844
